Biological target: T1, Macaca mulatta TF on RF/6A cells (Macaca mulatta (protein sequence stated …, UniProt P13726 33-294 (human entry)))
T1 construct: Endogenous TF of the RF/6A cell line; also called TF-positive Macaca mulatta RF/6A cells; cynomolgus TF
T1 chain: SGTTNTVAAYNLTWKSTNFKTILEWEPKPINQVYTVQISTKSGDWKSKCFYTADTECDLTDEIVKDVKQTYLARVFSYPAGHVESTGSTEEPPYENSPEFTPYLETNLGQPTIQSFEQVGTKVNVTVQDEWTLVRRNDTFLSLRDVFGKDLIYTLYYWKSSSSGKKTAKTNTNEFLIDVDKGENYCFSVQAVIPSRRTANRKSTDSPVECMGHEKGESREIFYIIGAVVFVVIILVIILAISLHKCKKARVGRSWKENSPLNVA
Assay: flow cytometry, IgG1 titrated on TF-positive Macaca mulatta RF/6A cells, 4-parameter fit
PROPERTY MEASURED: EC50 (nM)

• 25A (antibody, human IgG1, V domains shown, Human IgG1; also called antibody designated 25A) VH: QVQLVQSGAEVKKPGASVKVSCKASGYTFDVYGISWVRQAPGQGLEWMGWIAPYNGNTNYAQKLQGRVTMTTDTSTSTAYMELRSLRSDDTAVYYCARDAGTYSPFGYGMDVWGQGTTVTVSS VL: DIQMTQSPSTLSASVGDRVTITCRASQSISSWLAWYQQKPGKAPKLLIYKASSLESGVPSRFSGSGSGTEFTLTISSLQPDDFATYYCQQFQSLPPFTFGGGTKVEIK = 0.43
